Documented mass density across a set of molecules
# run.parameters: 298.15 K; 101 kPa; Liquid; Vibrating tube method
The reply should be a number in kg/m3, with the unit left off.

# example entries with known answers
- CCCCCCn1cc[n+](C)c1.F[B-](F)(F)F [1-hexyl-3-methylimidazolium tetrafluoroborate]: 1146.7
- C1CCOC1 [tetrahydrofuran]: 882.13
- CCC(C)=O [butanone]: 799.87
- CCOC(C)=O [ethyl acetate]: 894.48

In the following, a different molecule is considered.
mass density reading for CCCCN [1-butanamine] : 732.88
